system: prostate cancer (DU-145) cells; test: MTT cytotoxicity assay, DU-145; assay type: cell-based, human; details: Homo sapiens, DU-145; cancer cell, MTT, 48 h, means of three independent experiments; read-out: IC50 DU-145
MEASUREMENT KIND: pIC50
Reminder that pIC50 is minus the log10 of a molar concentration.

Name the reported pIC50 value associated with the compound NS(=O)(=O)c1cccc(N/N=N/c2ccc(F)cc2)c1 [Compound L1] 4.54

Name the reported pIC50 value associated with the compound NS(=O)(=O)c1cccc(N/N=N/c2ccc(C(=O)O)cc2)c1 [Compound L3] 3.73

Name the reported pIC50 value associated with the compound COc1ccc(/N=N/Nc2cccc(S(N)(=O)=O)c2)cc1 [Compound L2, 3–(3-(4-methoxyphenyl)triaz-1-en-1-yl)] 3.81

Name the reported pIC50 value associated with the compound O=c1[nH]cc(F)c(=O)[nH]1 [Compound 5-FU, 5-Fluorouracil, reference compound] 4.43

Name the reported pIC50 value associated with the compound COc1ccc(/N=N/Nc2cccc(S(N)(=O)=O)c2)cc1OC [Compound L4] 3.74

Name the reported pIC50 value associated with the compound Cc1cc(C)cc(NN=Nc2cccc(S(N)(=O)=O)c2)c1 [Compound L5] 4.01

The origin of these recorded values is paper PMC6211257.
